assayed_target: T1, human folate receptor alpha expressed on cells (transfected HEK293T, HeLa, MCF7, MDA-MB-231) (human, UniProt P15328 25-234)
T1 construct: HEK293T transiently transfected with human FOLR1; also called native human FRα; cell-expressed human FOLR1
T1 sequence (P15328 25-234 limits assumed): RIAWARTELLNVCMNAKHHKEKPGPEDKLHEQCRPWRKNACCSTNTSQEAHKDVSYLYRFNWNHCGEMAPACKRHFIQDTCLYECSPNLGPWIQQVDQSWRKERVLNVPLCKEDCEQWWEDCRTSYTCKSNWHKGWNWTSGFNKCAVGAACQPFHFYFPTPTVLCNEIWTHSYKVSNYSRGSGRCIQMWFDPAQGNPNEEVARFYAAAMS
assay_protocol: flow cytometry on HeLa cells, anti-Flag detection

[
  {
    "binder": "P01500042: P01500001(G28T, S30I)-FLAG3-HIS6 (VHH, also called P0150042) VHH: EVQLVESGGGLVQPGGSLRLSCAASGSTFIGMIMGWYRQAPGKQRELVATVTSHGTTNYADSVKGRFTISRDNAKNTVYLQMNSLRPEDTAVYYCNAHFPGIYWGKGTLVTVSS",
    "EC50 [nM]": 5.19
  },
  {
    "binder": "P01500057: P01500001(G26E, G28P, D72E, N73G)-FLAG3-HIS6 (VHH, also called P0150057) VHH: EVQLVESGGGLVQPGGSLRLSCAASESPFSGMIMGWYRQAPGKQRELVATVTSHGTTNYADSVKGRFTISREGAKNTVYLQMNSLRPEDTAVYYCNAHFPGIYWGKGTLVTVSS",
    "EC50 [nM]": 2.56
  },
  {
    "binder": "P01500053: P01500001(S30I, I33L, N73P)-FLAG3-HIS6 (VHH, also called P0150053) VHH: EVQLVESGGGLVQPGGSLRLSCAASGSGFIGMLMGWYRQAPGKQRELVATVTSHGTTNYADSVKGRFTISRDPAKNTVYLQMNSLRPEDTAVYYCNAHFPGIYWGKGTLVTVSS",
    "EC50 [nM]": 2.63
  }
]
